From: patent US12291518B2

Molecular target: THR beta-LBD (Homo sapiens)
Construct: THR beta-LBD (the final concentration is 0.5 nM) was added to the 384-well assay plate; purchased Invitrogen PV4686
Sequence (P10828 217-461 limits assumed): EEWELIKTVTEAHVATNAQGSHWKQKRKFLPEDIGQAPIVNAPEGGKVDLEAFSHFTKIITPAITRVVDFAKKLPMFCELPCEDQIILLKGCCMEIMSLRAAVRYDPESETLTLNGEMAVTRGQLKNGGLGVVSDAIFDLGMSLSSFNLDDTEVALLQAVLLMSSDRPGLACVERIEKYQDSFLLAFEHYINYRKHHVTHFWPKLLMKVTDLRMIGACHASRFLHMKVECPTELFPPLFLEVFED
Assay: THR-β Coactivator Peptide Recruitment Assay (LanthaScreen TR-FRET)
Type: biochemical
Conditions: TR-FRET coactivator recruitment, THR beta-LBD 0.5 nM; read-out: THRβ EC50
Experimental: A time-resolved FRET (TR-FRET) assay was used to test representative compounds of the application. THR-β Coactivator Peptide Recruitment Assay were conducted by using Invitrogen's LanthaScreen™ TR-FRET Thyroid Receptor beta Assay Kit (Catalog no. PV4686). […] After a gentle mix and incubation at room temperature for 2 h, the signal was read on the EnVision Multilabel Plate Reader at wavelengths of 520 nm and 495 nm. […]
observation type: EC50

State its EC50 for this compound: O=c1[nH]c(=O)n(-c2cc(Cl)c(Oc3ccc(O)c(S(=O)(=O)NCC4(O)CC4)c3)c(Cl)c2)nc1C(F)F [Compound 80]
0.002 to 0.02 µM

Supply EC50 value. Item: O=C(CNS(=O)(=O)c1cc(Oc2c(Cl)cc(-n3nc(C(F)F)c(=O)[nH]c3=O)cc2Cl)ncc1O)NC1CC1 [Compound 120]
> 0.1 µM

Tell me EC50 reported for O=C(N[C@H]1C[C@H](O)C1)c1cc(Oc2c(Cl)cc(-n3nc(C(F)F)c(=O)[nH]c3=O)cc2Cl)ccc1O [Compound 2]
0.002 to 0.02 µM

Name the recorded EC50 of the item O=c1[nH]c(=O)n(-c2cc(Cl)c(Oc3cc(S(=O)(=O)N4CC[C@@H](O)C4)c(O)cn3)c(Cl)c2)nc1C(F)F [Compound 141] in your answer.
0.002 to 0.02 µM

Return EC50 for the following compound: O=c1[nH]c(=O)n(-c2cc(Cl)c(Oc3ccc(O)c(S(=O)(=O)N[C@@H]4CC[C@H](O)C4)c3)c(Cl)c2)nc1C(F)F [Compound 66]
0.002 to 0.02 µM

# return recorded EC50 for input O=c1[nH]c(=O)n(-c2cc(Cl)c(Oc3cc(S(=O)(=O)NC4CS(=O)(=O)C4)c(O)cn3)c(Cl)c2)nc1C(F)F [Compound 148]
0.002 to 0.02 µM
